Just for reference, PubChem BioAssay (EPA / NIEHS) is where these values come from.

- Experimental system: Bile acid receptor (Homo sapiens)
- Method description: OT_FXR_FXRSRC1_1440: Odyssey Thera (OT) 24-hour HEK293T Protein-Complementation Assay for Farnesoid X receptor/SRC-1 Co-activator (AID 2283384)
Results filed as inconclusive are left out. The source made the active and inactive calls. How the source made its calls: active means hit-call score of the fitted dose curve at least 0.9, where 1 is the maximum; inconclusive means response in the unintended direction; inactive means score below 0.9.
Your answer must be one of the following: class 1 (active), class 0 (inactive)

Asked: State the result this test recorded for `CCNCCO` .
Given back: class 0

Asked: Field: outcome | Entry: O=C1NC2NC(=O)NC2N1 (configuration not stated)
Given back: class 0

Asked: Tell me the assay call for `Cc1ccc(S(=O)(=O)Oc2ccc(N=Nc3ccc(-c4ccc(N=Nc5c(O)ccc6cc(S(=O)(=O)O)cc(S(=O)(=O)O)c56)c(C)c4)cc3C)cc2)cc1` please.
Given back: class 0

Asked: What did the test return for CC1CCC(C(C)C)C(O)C1 (configuration not stated) ?
Given back: class 0

Asked: Name the outcome recorded for `OCc1cccc(Oc2ccccc2)c1` in the assay.
Given back: class 0

Asked: Give the logged outcome of this assay for the following compound: `O=C(O)c1ccc(O)cc1`
Given back: class 0

Asked: Please let me know the test result on file for `CCCCCCCCCC(=O)OC` .
Given back: class 0

Asked: Please share the test call associated with CCCCC1CCC(O)CC1 (configuration not stated) .
Given back: class 0

Asked: Each compound tested received a call. Report the one for `CCOC(=O)c1ccc(N)cc1` .
Given back: class 1

Asked: Per the records of this test, what outcome belongs to `CCCCCCCCc1ccc(S(=O)(=O)O)cc1` ?
Given back: class 0

Asked: What classification did `CCCC(C)=O` end up with in this test?
Given back: class 0

Asked: What did the test return for CCCCCCCCCCCCCC(=O)OCC(O)CO (configuration not stated) ?
Given back: class 1

Asked: Assay result, entry `CCCCCCCCN1CCCC1=O` — outcome?
Given back: class 0

Asked: Which outcome was entered for the compound `Oc1ccc2cc(SSc3ccc4cc(O)ccc4c3)ccc2c1` in this test?
Given back: class 1

Asked: Recorded test call requested for CC1CC(O)CC(C)(C)C1 (configuration not stated)
Given back: class 0

Asked: Dear colleague, could you share the recorded outcome for `Cc1cc(=O)oc2cc(N(C)C)ccc12` when you have a moment?
Given back: class 1

Asked: Record lookup: outcome of this test for `O=[N+]([O-])c1ccc(O)cc1C(F)(F)F` ?
Given back: class 1

---

- Experimental system: Retinoic acid receptor RXR-alpha (Homo sapiens) (UniProt P19793)
- Sequence (P19793 whole entry, looked up): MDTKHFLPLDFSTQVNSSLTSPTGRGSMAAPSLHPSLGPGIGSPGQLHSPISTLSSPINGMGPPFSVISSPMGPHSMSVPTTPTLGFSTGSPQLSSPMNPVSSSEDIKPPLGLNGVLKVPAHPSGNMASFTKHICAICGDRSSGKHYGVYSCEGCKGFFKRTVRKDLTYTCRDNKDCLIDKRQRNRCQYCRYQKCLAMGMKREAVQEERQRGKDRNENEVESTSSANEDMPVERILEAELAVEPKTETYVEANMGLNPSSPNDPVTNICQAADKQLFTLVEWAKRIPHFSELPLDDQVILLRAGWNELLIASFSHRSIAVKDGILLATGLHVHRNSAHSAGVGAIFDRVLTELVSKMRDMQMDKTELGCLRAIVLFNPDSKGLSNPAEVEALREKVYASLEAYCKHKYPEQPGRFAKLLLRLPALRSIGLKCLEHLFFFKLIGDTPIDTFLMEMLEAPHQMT
- Method description: ATG_RXRa_TRANS: Attagene TRANS-FACTORIAL HepG2 Assay for human Retinoid X Receptor alpha (RXRa) (AID 2283012)
Records with an inconclusive call do not appear. Active and inactive are the calls of the source. Rule for the calls: active = hit-call score of the fitted dose curve at least 0.9, where 1 is the maximum; inconclusive = response in the unintended direction; inactive = score below 0.9.
Log the outcome using a class from 1.0 = active, 0.0 = inactive

Asked: Recorded test call requested for C#CC(C)(O)CC(C)C (stereo not given)
Given back: 0.0

Asked: Please let me know the test result on file for `CC1(C)CCC[C@]2(C)[C@H]3CCO[C@]3(C)CC[C@@H]12` .
Given back: 0.0

Asked: Write down the call the test reported for this compound. Item: `CN(C)c1ccncc1`
Given back: 0.0

Asked: // outcome(item) with item = `CC=Cc1ccc(OC)c(OC)c1`
Given back: 0.0

Asked: For `O=C1CCCC=CCCCCCCCCCC1` , which call appears in the assay record?
Given back: 1.0

Asked: What outcome does the record of this test show for `CCCC[O][Al]([O]CCCC)[O]CCCC` ?
Given back: 0.0

Asked: Could you kindly confirm the outcome this assay logged for `O=CN1CCOCC1` ?
Given back: 0.0

Asked: Write down the call the test reported for this compound. Item: `CC(=O)c1ccccn1`
Given back: 0.0

Asked: Just curious, what result did CCCCC1CCC(O)CC1 (stereo not given) get here?
Given back: 0.0

Asked: Assay result, entry `CCCCCC(C)=O` — outcome?
Given back: 0.0

Asked: // outcome(item) with item = `CCOC(=O)COC(=O)c1cc(Oc2ccc(C(F)(F)F)cc2Cl)ccc1[N+](=O)[O-]`
Given back: 0.0

Asked: How was COC(C)(C)CCCC(C)CC=O (stereo not given) classified in this test?
Given back: 0.0

Asked: Per the assay record, what outcome was assigned to `O=C(O)c1ccc(O)cc1` ?
Given back: 0.0

Asked: Field: outcome | Entry: `Nc1ccccc1[N+](=O)[O-]`
Given back: 0.0

Asked: How did this test come out for `CCOC(=O)CCc1ccccc1` ?
Given back: 0.0

---

- Read-out: Interleukin 2 (IL2), IL2 (gene 3558)
- Method description: BSK_BT_xIL2: BioMAP Diversity Plus: BT Assay for Interleukin 2 (IL2) Biomarker Activity (AID 2284245)
- Applied conditions: primary human B cells with PBMC
Activity calls are given as the source filed them. Rule for the calls: active = hit-call score of the fitted dose curve at least 0.9, where 1 is the maximum; inactive = score below 0.9.
Please state which outcome applies, choosing from active, inactive

Asked: Record request — test call for `O=C1OC[C@H](Cc2cccc(O)c2)[C@H]1Cc1cccc(O)c1`
Given back: inactive

Asked: Would you mind telling me which call this test gave `CC(=O)Nc1ccc(C(=O)CCl)cc1` ?
Given back: active

Asked: Identify the outcome logged in this assay for the compound shown: `CCCCOC(=O)CCCCCCCC(=O)OCCCC`
Given back: inactive

Asked: Name the outcome recorded for `COc1cc(Cl)c(OC)cc1N` in the assay.
Given back: inactive

Asked: # lookup: test call for C1=CC2C3C=CC(C3)C2C1 (configuration not stated)
Given back: inactive

Asked: State the result this test recorded for `c1ccc2cc(Nc3ccc(Nc4ccc5ccccc5c4)cc3)ccc2c1` .
Given back: inactive

Asked: Could you please tell me the result logged for `C=C(C)[C@H]1CC=C(C)C(=O)C1` in this assay?
Given back: inactive

Asked: Dear colleague, could you share the recorded outcome for `CC(=O)c1c(C)c([N+](=O)[O-])c(C(C)(C)C)c([N+](=O)[O-])c1C` when you have a moment?
Given back: inactive

Asked: Please indicate how the test categorized `COc1ccc(OC)c(N=Nc2c(O)ccc3ccccc23)c1` .
Given back: inactive

Asked: Given `CN(C)C(=S)SC(=S)N(C)C` , state the outcome it received in this test.
Given back: active

Asked: Hi, do you know how `Oc1c(Cl)cc(Cl)c(Cl)c1Cc1c(O)c(Cl)cc(Cl)c1Cl` came out in this test?
Given back: active

Asked: Just curious, what result did CCC(C)c1cc([N+](=O)[O-])cc([N+](=O)[O-])c1OC(=O)OC(C)C (configuration not stated) get here?
Given back: active

---

- Method description: ATG_MRE_CIS: Attagene CIS-FACTORIAL HepG2 Assay for human Metal Responsive Element (MRE) (AID 2282954)
- Applied conditions: HepG2 MRE cis-reporter transcription, Attagene multiplex; actives raise or lower the signal
The source made the active and inactive calls. Rule for the calls: active = hit-call score of the fitted dose curve at least 0.9, where 1 is the maximum; inactive = score below 0.9.
Measure name: AC50

Illustrative cases are given below, each with its answer.
Given item `CCCCCCCCCCCCS(=O)(=O)Cl` , the value recorded as its AC50 is inactive

The value of AC50 measured for the compound `C=Cc1ccncc1` turned out to be 28.2 µM (active)

Query `CCc1cc(C(C)(C)C)c(O)c(C(C)(C)C)c1` yields AC50 of inactive

AC50 reported for this compound Cc1c(OCC(F)(F)F)ccnc1CS(=O)c1nc2ccccc2[nH]1 (stereo not drawn) : 73.1 µM (active)

For reference, reported AC50 for `CC(=O)O[C@@H]1C[C@@H]2CC[C@@]1(C)C2(C)C` stands at inactive

Others:
GET /value?item= `Oc1ccc2cc(SSc3ccc4cc(O)ccc4c3)ccc2c1` &field=AC50 returns 34.8 µM (active)

Recorded result, `CCc1ccc(O)cc1` , AC50: inactive

For record `CC(C)(C)OC(=O)c1ccc(O)cc1` the listed AC50 is 100 µM (active)

Record `CN(C)CCOc1ccc(/C(=C(/CCCl)c2ccccc2)c2ccccc2)cc1` . Reported AC50: inactive

Measured AC50, `CCC(=O)O[C@@H]1C[C@H]2CC[C@]1(C)C2(C)C` : inactive

Lab book: AC50 of `CCCN(CCC)S(=O)(=O)c1ccc(C(=O)O)cc1` noted as inactive

So for `Cc1cc(S(=O)(=O)O)ccc1N=Nc1c(O)ccc2ccccc12` , the logged AC50 turned out to be inactive

According to the records, this compound `CCCCSCCCC` displays AC50 of inactive

---

- Method description: TOX21_p53_BLA_p3_viability: Viability Assessment in the Tox21 HCT-116 p53 Agonism Beta-lactamase Assay, Phase 3 (AID 2283593);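 further: cells exposed to compound for 16 h before reading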
Inconclusive results are not listed. Calls of active or inactive are those of the source. How the source made its calls: active means hit-call score of the fitted dose curve at least 0.9, where 1 is the maximum; inconclusive means response in the unintended direction; inactive means score below 0.9.
# valid calls are active, inactive; nothing else

Asked: Assay result, entry `CCCN(CCC)S(=O)(=O)c1ccc(C(=O)O)cc1` — outcome?
Given back: inactive

Asked: # outcome recorded in this test, key = Cc1c(OCC(F)(F)F)ccnc1CS(=O)c1nc2ccccc2[nH]1 (configuration not stated)
Given back: inactive

Asked: Identify the outcome logged in this assay for the compound shown: CC(C)C(OC(=O)c1ccccc1)C(C)(C)COC(=O)c1ccccc1 (configuration not stated)
Given back: inactive

Asked: Please state the recorded outcome for this compound: `Cc1c(C2(c3cc(Br)c(O)c(Br)c3C)OS(=O)(=O)c3ccccc32)cc(Br)c(O)c1Br`
Given back: active

Asked: Please state the recorded outcome for this compound: `CN1C(=O)c2ccccc2C1=O`
Given back: inactive

Asked: # fetch the recorded call for `CCCCC(CC)(CO)CO` here
Given back: inactive

Asked: So what was the verdict on `COC(=O)C=C(C)CCC=C(C)C` in this test?
Given back: inactive

Asked: Test call for this compound, please: `O=CCc1ccccc1`
Given back: inactive

Asked: State the result this test recorded for `CCCCC1(COC(=O)CCC(=O)O)C(=O)N(c2ccccc2)N(c2ccccc2)C1=O` .
Given back: inactive

Asked: Hello, I am checking results. What call was entered for `CCCC(=O)OC(C)(C)Cc1ccccc1` ?
Given back: inactive

Asked: Give the logged outcome of this assay for the following compound: `CC1(C)C2=CCCC(C)(C)[C@]23CC[C@H]1C3`
Given back: inactive

Asked: Can you look up the reported call for `O=c1[nH]c(=O)c2cn[nH]c2[nH]1` for me?
Given back: inactive

Asked: Query: recorded result category for `IC(I)I` in this test
Given back: inactive

Asked: Look up the recorded call for CCCCCCCC(=O)OCC(O)CO (configuration not stated) in this test.
Given back: inactive

Asked: State the result this test recorded for `O=C(O)CNc1ccccc1` .
Given back: inactive

Asked: Which outcome was assigned to `Cc1ncc([N+](=O)[O-])n1CCO` in this test?
Given back: inactive

Asked: # fetch the recorded call for `CCCC(C)=O` here
Given back: inactive

Asked: Please share the test call associated with `OC[C@H]1O[C@@H](Oc2ccc(O)cc2)[C@H](O)[C@@H](O)[C@@H]1O` .
Given back: inactive

Asked: Which outcome was assigned to `Cc1ccc(C)o1` in this test?
Given back: inactive

Asked: In this assay, the call recorded for `Nc1ccccc1[N+](=O)[O-]` was what?
Given back: inactive

Asked: Short answer needed: outcome of this test for `O=C(O)CCCCCCCCCCCC(=O)O` ?
Given back: inactive

Asked: Outcome logged for `CC(=O)c1c(C)c([N+](=O)[O-])c(C(C)(C)C)c([N+](=O)[O-])c1C` in this assay:
Given back: inactive
